Test: Triplet state properties by laser flash photolysis
Format: physicochemical
Conditions: phosphate-buffered solution
measured_property: λmax of transient spectrum (nm)
Note: unit nm is implicit; provide only the numeric part.

Record excerpt, results attached:
- CCCCCCCCCCCCCC[n+]1ccc(-c2c3nc(c(-c4cc[n+](C)cc4)c4ccc([nH]4)c(-c4cc[n+](C)cc4)c4nc(c(-c5cc[n+](C)cc5)c5ccc2[nH]5)C=C4)C=C3)cc1.Cl.Cl.[Cl-].[Cl-].[Cl-].[Cl-]: 480
- C[n+]1ccc(-c2c3nc(c(-c4cc[n+](C)cc4)c4ccc([nH]4)c(-c4cc[n+](C)cc4)c4nc(c(-c5cc[n+](C)cc5)c5ccc2[nH]5)C=C4)C=C3)cc1.Cc1ccc(S(=O)(=O)[O-])cc1.Cc1ccc(S(=O)(=O)[O-])cc1.Cc1ccc(S(=O)(=O)[O-])cc1.Cc1ccc(S(=O)(=O)[O-])cc1 [Porphyrin T4MPyP, reference compound]: 480
- CCCCCCCCCC[n+]1ccc(-c2c3nc(c(-c4cc[n+](C)cc4)c4ccc([nH]4)c(-c4cc[n+](C)cc4)c4nc(c(-c5cc[n+](C)cc5)c5ccc2[nH]5)C=C4)C=C3)cc1.Cl.Cl.[Cl-].[Cl-].[Cl-].[Cl-]: 490

Record "CCCCCCCCCCCCCCCCCC[n+]1ccc(-c2c3nc(c(-c4cc[n+](C)cc4)c4ccc([nH]4)c(-c4cc[n+](C)cc4)c4nc(c(-c5cc[n+](C)cc5)c5ccc2[nH]5)C=C4)C=C3)cc1.Cl.Cl.[Cl-].[Cl-].[Cl-].[Cl-]" , field λmax of transient spectrum: 470
